measurement_name: pKd
FYI, pKd means -log10 of a concentration in mol per litre.

Query: Look up pKd with Cleavage and Polyadenylation Specificity Factor 3 (CPSF3) (Homo sapiens, UniProt Q9UKF6) for this compound: "CN1CCN(CCOc2c(Cl)cc(C(=O)N[C@@H](Cc3ccccc3)C(=O)O)c(O)c2Cl)CC1"
Sequence (Q9UKF6 1-459): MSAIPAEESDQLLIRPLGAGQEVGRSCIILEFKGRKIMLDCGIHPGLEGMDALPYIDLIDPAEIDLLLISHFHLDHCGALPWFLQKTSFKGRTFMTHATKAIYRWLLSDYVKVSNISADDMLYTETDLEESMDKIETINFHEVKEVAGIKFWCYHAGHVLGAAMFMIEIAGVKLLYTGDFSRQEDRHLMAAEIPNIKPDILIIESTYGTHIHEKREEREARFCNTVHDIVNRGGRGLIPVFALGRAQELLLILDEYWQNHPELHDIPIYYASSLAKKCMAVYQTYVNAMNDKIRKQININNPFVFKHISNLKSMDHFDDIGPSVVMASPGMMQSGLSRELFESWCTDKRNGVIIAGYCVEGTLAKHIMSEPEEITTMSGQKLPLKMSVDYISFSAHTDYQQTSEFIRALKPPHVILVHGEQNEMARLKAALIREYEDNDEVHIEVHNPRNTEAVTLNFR
Response: 6.43
